Attribution: patent US9012412B2

- Tested System: human SGLT2 (Homo sapiens)
- Construct: expressed in transfected cells
- Sequence (P31639 1-672): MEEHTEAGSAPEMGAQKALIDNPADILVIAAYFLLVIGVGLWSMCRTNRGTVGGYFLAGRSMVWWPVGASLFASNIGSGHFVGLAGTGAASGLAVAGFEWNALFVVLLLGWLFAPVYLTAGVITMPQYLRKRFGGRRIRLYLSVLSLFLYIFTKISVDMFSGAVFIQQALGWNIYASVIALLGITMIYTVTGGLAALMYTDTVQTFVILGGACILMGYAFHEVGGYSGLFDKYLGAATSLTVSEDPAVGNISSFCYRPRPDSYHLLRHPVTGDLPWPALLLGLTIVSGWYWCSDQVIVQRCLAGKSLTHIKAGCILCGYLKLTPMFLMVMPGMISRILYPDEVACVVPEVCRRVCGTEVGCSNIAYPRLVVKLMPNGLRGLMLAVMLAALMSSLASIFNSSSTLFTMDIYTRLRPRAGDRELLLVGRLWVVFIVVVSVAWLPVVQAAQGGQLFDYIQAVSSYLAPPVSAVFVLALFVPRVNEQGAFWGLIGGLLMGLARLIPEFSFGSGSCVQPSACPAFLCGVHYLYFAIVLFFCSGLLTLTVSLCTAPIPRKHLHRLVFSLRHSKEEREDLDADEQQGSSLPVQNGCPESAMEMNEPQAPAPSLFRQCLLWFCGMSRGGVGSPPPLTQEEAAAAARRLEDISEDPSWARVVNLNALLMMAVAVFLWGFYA
- Test Details: Sodium-dependent 14C-methyl-α-D-glucopyranoside uptake in CHO-K1 cells stably expressing human SGLT2
- Assay type: cell-based
- Assay Conditions: compound at 0.1 μM
Consider the following molecules and their measured inhibition at 0.1 µM readings.
Give just the number in %; leave the unit off.

Lab note: measured inhibition at 0.1 µM of COc1c([C@@H]2O[C@H](CO)C[C@H](O)[C@H]2O)cc(Cc2cc3ccccc3s2)c(C)c1C was 70

Lab note: measured inhibition at 0.1 µM of Cc1cc(Br)c([C@@H]2O[C@H](CO)C[C@H](O)[C@H]2O)cc1Cc1ccc(-c2ccc(F)cc2)s1 was 73

Lab note: measured inhibition at 0.1 µM of Cc1cc(O)c([C@@H]2O[C@H](CO)C[C@H](O)[C@H]2O)cc1Cc1nc2ccccc2s1 was 41

Lab note: measured inhibition at 0.1 µM of Cc1cc(O)c([C@@H]2O[C@H](CO)C[C@H](O)[C@H]2O)cc1Cc1cc2ccccc2o1 was 69

Lab note: measured inhibition at 0.1 µM of Cc1cc(O)c([C@@H]2O[C@H](CO)C[C@H](O)[C@H]2O)cc1Cc1cc2cc(Cl)ccc2s1 was 84

Lab note: measured inhibition at 0.1 µM of C=Cc1cc(O)c([C@@H]2O[C@H](CO)C[C@H](O)[C@H]2O)cc1Cc1cc2ccccc2s1 was 64
